molecular target: PI3-kinase p110-alpha/p85-alpha (Homo sapiens); experiment: Inhibition of alexa fluor 647-labeled kinase tracer 314 binding to recombinant human N-terminal His-tagged p110alpha/p85alpha expressed in baculovirus expression system measured after 60 mins by LanthaScreen TR-FRET assay relative to control
Sequence (P27986 whole entry): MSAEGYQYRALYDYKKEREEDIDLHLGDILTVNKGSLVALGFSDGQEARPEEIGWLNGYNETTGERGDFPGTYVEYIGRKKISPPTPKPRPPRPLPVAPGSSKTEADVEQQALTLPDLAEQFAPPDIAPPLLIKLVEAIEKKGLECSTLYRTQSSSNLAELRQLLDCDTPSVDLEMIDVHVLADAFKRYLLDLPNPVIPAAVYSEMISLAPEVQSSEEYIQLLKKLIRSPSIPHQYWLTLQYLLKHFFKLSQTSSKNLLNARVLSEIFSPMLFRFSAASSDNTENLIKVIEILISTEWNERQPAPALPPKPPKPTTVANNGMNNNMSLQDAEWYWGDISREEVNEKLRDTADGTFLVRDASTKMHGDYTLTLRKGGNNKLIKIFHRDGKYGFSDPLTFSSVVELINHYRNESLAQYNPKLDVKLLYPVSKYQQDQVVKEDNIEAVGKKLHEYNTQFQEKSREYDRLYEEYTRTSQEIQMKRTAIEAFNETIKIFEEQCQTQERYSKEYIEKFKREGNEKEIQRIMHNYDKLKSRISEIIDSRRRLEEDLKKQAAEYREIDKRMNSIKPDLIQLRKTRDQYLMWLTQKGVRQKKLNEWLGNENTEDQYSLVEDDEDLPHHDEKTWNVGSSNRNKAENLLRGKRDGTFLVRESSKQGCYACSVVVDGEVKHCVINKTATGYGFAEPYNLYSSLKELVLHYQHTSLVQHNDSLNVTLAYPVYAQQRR
Sequence (P42336 whole entry): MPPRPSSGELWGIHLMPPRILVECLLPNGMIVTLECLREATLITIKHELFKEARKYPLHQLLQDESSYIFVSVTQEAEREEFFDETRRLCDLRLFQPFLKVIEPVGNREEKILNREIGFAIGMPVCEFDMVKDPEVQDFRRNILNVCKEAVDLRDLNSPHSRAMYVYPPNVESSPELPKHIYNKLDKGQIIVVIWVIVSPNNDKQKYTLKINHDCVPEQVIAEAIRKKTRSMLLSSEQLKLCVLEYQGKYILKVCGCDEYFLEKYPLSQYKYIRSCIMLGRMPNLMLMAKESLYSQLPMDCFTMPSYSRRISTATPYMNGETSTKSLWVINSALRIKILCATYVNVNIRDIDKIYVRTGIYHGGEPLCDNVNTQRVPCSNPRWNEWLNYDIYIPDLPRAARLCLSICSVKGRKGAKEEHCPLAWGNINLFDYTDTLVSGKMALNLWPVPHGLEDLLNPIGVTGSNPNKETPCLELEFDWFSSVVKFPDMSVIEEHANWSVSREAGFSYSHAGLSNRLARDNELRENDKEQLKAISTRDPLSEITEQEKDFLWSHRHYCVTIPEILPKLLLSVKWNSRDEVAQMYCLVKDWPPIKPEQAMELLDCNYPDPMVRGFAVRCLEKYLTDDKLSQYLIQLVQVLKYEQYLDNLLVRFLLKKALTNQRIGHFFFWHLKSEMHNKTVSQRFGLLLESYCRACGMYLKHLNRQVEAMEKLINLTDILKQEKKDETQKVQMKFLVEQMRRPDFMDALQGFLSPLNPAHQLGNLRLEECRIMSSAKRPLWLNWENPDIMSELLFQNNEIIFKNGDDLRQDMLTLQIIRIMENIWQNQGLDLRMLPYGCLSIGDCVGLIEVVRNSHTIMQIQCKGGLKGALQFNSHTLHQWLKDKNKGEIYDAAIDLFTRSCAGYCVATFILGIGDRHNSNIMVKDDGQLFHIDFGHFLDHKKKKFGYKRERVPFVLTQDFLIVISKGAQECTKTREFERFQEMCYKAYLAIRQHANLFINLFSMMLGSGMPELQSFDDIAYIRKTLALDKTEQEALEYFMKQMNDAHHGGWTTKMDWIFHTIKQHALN
The entries below come with measured Ki values attached.
recorded endpoint: Ki (nM)

• C[C@@H]1COCCN1c1nc(-c2cnc(N)cc2C(F)F)nc(N2CCOC[C@@H]2C)n1 = 33
• C[C@@H]1COCCN1c1nc(-c2cnc(N)cc2C(F)F)nc(N2CCOC[C@H]2C)n1 = 469
• C[C@@H]1COCCN1c1nc(-c2cnc(N)cc2C(F)F)nc(N2[C@H](C)COC[C@@H]2C)n1 = 287
• C[C@@H]1COCCN1c1nc(-c2cnc(N)cc2C(F)F)nc(N2CCOCC2(C)C)n1 = 469
• CC[C@@H]1COCCN1c1nc(-c2cnc(N)cc2C(F)F)nc(N2CCOC[C@H]2C)n1 = 65
• C[C@@H]1COCCN1c1nc(-c2cnc(N)cc2C(F)F)nc(N2CCOCC23CCC3)n1 = 404
• C[C@@H]1COCCN1c1nc(-c2cnc(N)cc2C(F)F)nc(N2CCOCC2)n1 = 19
• CC[C@H]1COCCN1c1nc(-c2cnc(N)cc2C(F)F)nc(N2CCOC[C@H]2C)n1 = 63
• C[C@@H]1COCCN1c1nc(-c2cnc(N)cc2C(F)F)nc(N2[C@@H](C)COC[C@@H]2C)n1 = 233

###

test: AUC (0 to 8 hrs) in C57BL/6J mouse plasma at 10 mg/kg, po administered as single dose by mass spectrometry based UHPLC analysis; format: ADME, organism-based; parameters: time < 8 hr, route oral, dose 10 mg/kg
recorded endpoint: AUC(0-t) at 8 h (ng·h/mL)

- CO[C@H]1C[C@@H]2CC[C@@H](C)[C@@](O)(O2)C(=O)C(=O)N2CCCC[C@H]2C(=O)O[C@H]([C@H](C)C[C@@H]2CC[C@@H](OCCO)[C@H](OC)C2)CC(=O)[C@H](C)/C=C(\C)[C@@H](O)[C@@H](OC)C(=O)[C@H](C)C[C@H](C)/C=C/C=C/C=C/1C: 33600
- C[C@@H]1COCCN1c1nc(-c2cnc(N)cc2C(F)F)nc(N2[C@H](C)COC[C@@H]2C)n1: 2940

###

experiment: Tmax in C57BL/6J mouse plasma at 10 mg/kg, po administered once a day for 4 consecutive days by mass spectrometry based UHPLC analysis; format: ADME, organism-based; settings: time 4 day
recorded endpoint: Tmax (h)

- CO[C@H]1C[C@@H]2CC[C@@H](C)[C@@](O)(O2)C(=O)C(=O)N2CCCC[C@H]2C(=O)O[C@H]([C@H](C)C[C@@H]2CC[C@@H](OCCO)[C@H](OC)C2)CC(=O)[C@H](C)/C=C(\C)[C@@H](O)[C@@H](OC)C(=O)[C@H](C)C[C@H](C)/C=C/C=C/C=C/1C: 2
- C[C@@H]1COCCN1c1nc(-c2cnc(N)cc2C(F)F)nc(N2[C@H](C)COC[C@@H]2C)n1: 0.5

###

test: Tmax in C57BL/6J mouse brain at 10 mg/kg, po administered as single dose by mass spectrometry based UHPLC analysis; format: ADME, organism-based
The entries below come with measured Tmax values attached.
recorded endpoint: Tmax (h)

* CO[C@H]1C[C@@H]2CC[C@@H](C)[C@@](O)(O2)C(=O)C(=O)N2CCCC[C@H]2C(=O)O[C@H]([C@H](C)C[C@@H]2CC[C@@H](OCCO)[C@H](OC)C2)CC(=O)[C@H](C)/C=C(\C)[C@@H](O)[C@@H](OC)C(=O)[C@H](C)C[C@H](C)/C=C/C=C/C=C/1C | 24
* C[C@@H]1COCCN1c1nc(-c2cnc(N)cc2C(F)F)nc(N2[C@H](C)COC[C@@H]2C)n1 | 0.5

###

test: Elimination half life in C57BL/6J mouse plasma at 10 mg/kg, po administered as single dose by mass spectrometry based UHPLC analysis; format: ADME, organism-based; settings: read-out: beta t1/2 (converted)
recorded endpoint: half-life (h)

- C[C@@H]1COCCN1c1nc(-c2cnc(N)cc2C(F)F)nc(N2[C@H](C)COC[C@@H]2C)n1: 3
- CO[C@H]1C[C@@H]2CC[C@@H](C)[C@@](O)(O2)C(=O)C(=O)N2CCCC[C@H]2C(=O)O[C@H]([C@H](C)C[C@@H]2CC[C@@H](OCCO)[C@H](OC)C2)CC(=O)[C@H](C)/C=C(\C)[C@@H](O)[C@@H](OC)C(=O)[C@H](C)C[C@H](C)/C=C/C=C/C=C/1C: 6.5

###

The entries below come with measured Cmax values attached.
assay: Cmax in C57BL/6J mouse plasma at 25 mg/kg, po administered as single dose by mass spectrometry based UHPLC analysis; format: ADME, organism-based; design: route oral, dose 25 mg/kg
recorded endpoint: Cmax

- CNC(=O)c1cccc(-c2ccc3c(N4CCOC[C@@H]4C)nc(N4CCOC[C@@H]4C)nc3n2)c1: 7190 ng/mL
- C[C@@H]1COCCN1c1nc(-c2cnc(N)cc2C(F)F)nc(N2[C@H](C)COC[C@@H]2C)n1: 1830 ng/mL

###

experiment: Elimination half life in C57BL/6J mouse brain at 10 mg/kg, po administered as single dose by mass spectrometry based UHPLC analysis; format: ADME, organism-based; details: read-out: beta t1/2 (converted)
recorded endpoint: half-life (h)

• C[C@@H]1COCCN1c1nc(-c2cnc(N)cc2C(F)F)nc(N2[C@H](C)COC[C@@H]2C)n1 = 2.9

###

assay: Cmax in C57BL/6J mouse plasma at 10 mg/kg, po administered once a day for 4 consecutive days by mass spectrometry based UHPLC analysis; type: ADME, organism-based; parameters: route oral, dose 10 mg/kg, time 4 day
The entries below come with measured Cmax values attached.
recorded endpoint: Cmax

* CO[C@H]1C[C@@H]2CC[C@@H](C)[C@@](O)(O2)C(=O)C(=O)N2CCCC[C@H]2C(=O)O[C@H]([C@H](C)C[C@@H]2CC[C@@H](OCCO)[C@H](OC)C2)CC(=O)[C@H](C)/C=C(\C)[C@@H](O)[C@@H](OC)C(=O)[C@H](C)C[C@H](C)/C=C/C=C/C=C/1C [EVEROLIMUS] | 3940 ng/mL
* C[C@@H]1COCCN1c1nc(-c2cnc(N)cc2C(F)F)nc(N2[C@H](C)COC[C@@H]2C)n1 | 947 ng/mL

###

target: Serine/threonine-protein kinase mTOR (Homo sapiens); assay: Inhibition of alexa fluor 647-labeled kinase tracer 314 binding to recombinant human N-terminal GST-tagged mTOR (1360 to 2549 residues) expressed in baculovirus expression system measured after 60 mins by TR-FRET based LanthaScreen Eu kinase binding assay
recorded endpoint: Ki (nM)

- C[C@@H]1COCCN1c1nc(-c2cnc(N)cc2C(F)F)nc(N2[C@@H](C)COC[C@@H]2C)n1: 6.4
- CC[C@@H]1COCCN1c1nc(-c2cnc(N)cc2C(F)F)nc(N2CCOC[C@H]2C)n1: 18
- CC[C@H]1COCCN1c1nc(-c2cnc(N)cc2C(F)F)nc(N2CCOC[C@H]2C)n1: 67
- C[C@@H]1COCCN1c1nc(-c2cnc(N)cc2C(F)F)nc(N2CCOCC2(C)C)n1: 4.7
- C[C@@H]1COCCN1c1nc(-c2cnc(N)cc2C(F)F)nc(N2CCOCC23CCC3)n1: 11

###

experiment: Metabolic stability in CD1 mouse hepatocytes assessed as half-life at 5 uM incubated for 3 hrs by LC-MS analysis; type: ADME, cell-based, Hepatocyte
The entries below come with measured half-life at 5 µM values attached.
recorded endpoint: half-life at 5 µM (h)

* CCOc1ccc2ccc(=O)oc2c1 | 0.35
* C[C@@H]1COCCN1c1nc(-c2cnc(N)cc2C(F)F)nc(N2[C@H](C)COC[C@@H]2C)n1 | 3.35

###

The entries below come with measured remaining at 1 h, 1 µM values attached.
molecular target: CYP1A2 (Homo sapiens); test: Drug metabolism assessed as human recombinant CYP1A2 expressed in baculovirus infected insect cells-mediated metabolism by measuring parent compound remaining at 1 uM incubated for 60 mins in presence of NADPH regenerating system by UHPLC based LC-MS analysis; type: ADME; conditions: read-out: Stabilty
Sequence (P05177 whole entry): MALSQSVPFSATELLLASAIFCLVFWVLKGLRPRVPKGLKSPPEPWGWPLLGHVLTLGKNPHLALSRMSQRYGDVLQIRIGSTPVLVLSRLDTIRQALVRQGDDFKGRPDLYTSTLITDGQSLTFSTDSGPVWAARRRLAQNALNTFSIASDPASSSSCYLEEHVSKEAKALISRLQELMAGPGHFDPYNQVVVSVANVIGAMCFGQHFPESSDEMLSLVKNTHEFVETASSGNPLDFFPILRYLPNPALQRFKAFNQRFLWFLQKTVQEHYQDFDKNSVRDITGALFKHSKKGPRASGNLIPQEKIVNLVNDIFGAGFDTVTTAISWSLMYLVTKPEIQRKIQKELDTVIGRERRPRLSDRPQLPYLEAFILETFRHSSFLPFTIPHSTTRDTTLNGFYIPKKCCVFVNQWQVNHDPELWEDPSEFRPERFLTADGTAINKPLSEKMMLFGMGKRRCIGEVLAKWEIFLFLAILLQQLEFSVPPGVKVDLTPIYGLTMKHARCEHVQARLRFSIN
recorded endpoint: remaining at 1 h, 1 µM (%)

* C[C@@H]1COCCN1c1nc(-c2cnc(N)cc2C(F)F)nc(N2CCOCC2(C)C)n1 | 101
* C[C@@H]1COCCN1c1nc(-c2cnc(N)cc2C(F)F)nc(N2[C@H](C)COC[C@@H]2C)n1 | 98.5

###

assay: Intrinsic clearance in Sprague-Dawley rat hepatocytes assessed per million cells at 5 uM incubated for 3 hrs by LC-MS analysis; assay type: ADME, cell-based, Hepatocyte; settings: read-out: CLH
recorded endpoint: hepatocyte CLint at 5 µM (µL/min/1e6 cells)

• C[C@@H]1COCCN1c1nc(-c2cnc(N)cc2C(F)F)nc(N2[C@H](C)COC[C@@H]2C)n1 = 5.3

Taken from ChEMBL document CHEMBL4715860.
